ASSAY DETAILS: concentration in entorhinal cortex and hippocampus after oral administration
Type: in vivo, Sprague-Dawley (SD) rats
EXPERIMENTAL CONDITIONS: both, Sprague-Dawley, rat, entorhinal cortex and hippocampus, po, 100 mg/kg
READOUT NAME: Tmax

- Cl.Cl.O=C(CCN1CCCCC1)c1ccc(-c2ccc(C(=O)CCN3CCCCC3)cc2)cc1: ~6 h

###

ASSAY DETAILS: plasma pharmacokinetics after oral and intravenous administration
Assay type: in vivo, Sprague-Dawley (SD) rats
EXPERIMENTAL CONDITIONS: both, Sprague-Dawley, rat, 25 mg/kg
READOUT NAME: Cmax (ng/mL)

- Cl.Cl.O=C(CCN1CCCCC1)c1ccc(-c2ccc(C(=O)CCN3CCCCC3)cc2)cc1 [DL0410]: 21.5
